The values you see were collected from patent US6743445B2.

Experiment: Influence of plasticiser type on the MFFT of Aquacoat dispersion
Assay type: physicochemical
Conditions: plasticiser added as emulsion
Procedure: Two different methods were used to evaluate the influence of plasticiser type, quantity and incorporation technique on the MFFT on Surelease® EA7100 and Aquacoat® ECD30. […] The second method determined the specific MFFT for each formulation. […] The temperatures were measured at the beginning and at the end of each experiment using a Jenway 3070 digital-display thermometer. […]
Structures can show the parent of a compound that is named as a salt.

[
  {
    "compound": "CCOC(=O)CC(O)(CC(=O)OCC)C(=O)OCC [triethyl citrate]",
    "Lowering of the MFFT of Aquacoat®": "lowering the MFFT"
  },
  {
    "compound": "CC(=O)OCC(COC(C)=O)OC(C)=O",
    "Lowering of the MFFT of Aquacoat®": "lowering the MFFT"
  }
]
